IC50 values, listed per item
SYSTEM TESTED: human TLR8 (Homo sapiens, UniProt Q9NR97)
EXPERIMENT: TLR8 inhibition reporter assay (HEK-Blue cells, SEAP reporter, R848 stimulation)
APPLIED CONDITIONS: HEK-Blue cells overexpressing human TLR8, SEAP reporter, R848 15.9 μM
Lab book: enter the figure in nM, no units written.

Consider the worked cases shown below.
COMPOUND	SYSTEM TESTED	IC50 (nM)
Cc1cc(-c2[nH]c3ccc(C4CCC(NC5(C)COC5)CC4)cc3c2C(C)C)cn2ncnc12 (single isomer, unassigned) [Example 47]	human TLR8 (Homo sapiens, UniProt Q9NR97)	7.5
Cc1c(-c2[nH]c3ccc(C4CCC(N)CC4)cc3c2C(C)C)cn2cnnc2c1C (stereo not shown) [Example 516]	human TLR8 (Homo sapiens, UniProt Q9NR97)	13
COc1cc(-c2[nH]c3ccc(C4CCC(NCC(F)F)CC4)cc3c2C(C)C)cn2ncnc12 (single isomer, unassigned) [Example 67]	human TLR8 (Homo sapiens, UniProt Q9NR97)	1.3

## Task What does the record list as IC50 for Cc1c(-c2[nH]c3ccc(C4CCCNC4)cc3c2C(C)C)cn2ncnc2c1C (stereo not shown) [Example 190] ?
## Result 0.35

====

SYSTEM TESTED: human TLR8 (Homo sapiens)
Sequence (Q9NR97 27-1041): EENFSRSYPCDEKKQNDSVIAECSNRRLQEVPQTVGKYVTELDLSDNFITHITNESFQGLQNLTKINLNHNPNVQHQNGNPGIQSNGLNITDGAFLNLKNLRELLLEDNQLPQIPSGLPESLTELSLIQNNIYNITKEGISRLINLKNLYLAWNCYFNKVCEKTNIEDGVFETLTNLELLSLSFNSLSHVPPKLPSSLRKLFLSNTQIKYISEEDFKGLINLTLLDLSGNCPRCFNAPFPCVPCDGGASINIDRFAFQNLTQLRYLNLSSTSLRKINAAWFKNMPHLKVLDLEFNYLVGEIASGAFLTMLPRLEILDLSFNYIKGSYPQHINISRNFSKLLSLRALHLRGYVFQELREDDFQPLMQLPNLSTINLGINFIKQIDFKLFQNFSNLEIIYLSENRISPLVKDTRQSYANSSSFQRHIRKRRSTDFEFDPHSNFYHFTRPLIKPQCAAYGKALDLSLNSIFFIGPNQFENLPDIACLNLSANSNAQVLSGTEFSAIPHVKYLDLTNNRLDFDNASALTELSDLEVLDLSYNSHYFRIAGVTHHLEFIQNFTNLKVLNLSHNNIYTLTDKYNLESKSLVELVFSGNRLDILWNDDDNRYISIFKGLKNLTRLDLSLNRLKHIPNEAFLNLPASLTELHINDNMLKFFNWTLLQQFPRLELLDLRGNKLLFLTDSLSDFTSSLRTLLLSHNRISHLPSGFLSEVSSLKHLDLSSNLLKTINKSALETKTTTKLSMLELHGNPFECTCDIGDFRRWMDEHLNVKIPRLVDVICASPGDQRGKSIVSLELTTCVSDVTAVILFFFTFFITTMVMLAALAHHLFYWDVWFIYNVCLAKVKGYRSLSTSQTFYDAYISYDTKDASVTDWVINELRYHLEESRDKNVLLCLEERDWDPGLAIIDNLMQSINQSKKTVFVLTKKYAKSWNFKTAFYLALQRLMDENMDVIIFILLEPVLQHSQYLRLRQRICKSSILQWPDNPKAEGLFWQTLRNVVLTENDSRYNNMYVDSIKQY
EXPERIMENT: TLR8 inhibition reporter assay (HEK-Blue cells, SEAP reporter, R848 stimulation)
APPLIED CONDITIONS: HEK-Blue cells overexpressing human TLR8, SEAP reporter, R848 15.9 μM
Description: TLR7/8/9 Inhibition Reporter Assays HEK-Blue™-cells (Invivogen) overexpressing human TLR7, TLR8 or TLR9 receptors were used for screening inhibitors of these receptors using an inducible SEAP (secreted embryonic alkaline phosphatase) reporter gene under the control of the IFN-β minimal promoter fused to five NF-κB and AP-1-binding sites. […]
pIC50: −log10 of the molar value.
Label scheme for pIC50: lower than 8 is False, 8 and above is True.

The following compounds have reported results that may help.
COMPOUND	GROUP LABEL
Cc1cc(-c2[nH]c3ccc(C4CCC(N(C)C(=O)CN(C)C)CC4)cc3c2C(C)C)cn2ncnc12 (stereo not shown) [Example 149]	True
Cc1c(-c2[nH]c3ccc(C4CC(NCCS(C)(=O)=O)C4)cc3c2C(C)C)cn(C)c(=O)c1C (stereo not shown) [Example 494]	True
COc1cc(-c2[nH]c3ccc(C4CCC(N5CCCC(F)(F)C5)CC4)cc3c2C(C)C)cn2ncnc12 (stereo not shown) [Example 34]	False

## Task Form field: pIC50 at least 8? Entry: Cc1c(-c2[nH]c3ccc(C4CNC(C)(C)CO4)cc3c2C(C)C)cn2ncnc2c1C (stereo not shown) [Example 371]
## Result True

## Task Item: COc1ccc(-c2[nH]c3ccc(C4CCCN(CC(=O)N(C)C)C4)cc3c2C(C)C)cc1OC (stereo not shown)
## Result False

====

SYSTEM TESTED: human TLR7 (Homo sapiens, UniProt Q9NYK1)
Sequence (Q9NYK1 27-1049): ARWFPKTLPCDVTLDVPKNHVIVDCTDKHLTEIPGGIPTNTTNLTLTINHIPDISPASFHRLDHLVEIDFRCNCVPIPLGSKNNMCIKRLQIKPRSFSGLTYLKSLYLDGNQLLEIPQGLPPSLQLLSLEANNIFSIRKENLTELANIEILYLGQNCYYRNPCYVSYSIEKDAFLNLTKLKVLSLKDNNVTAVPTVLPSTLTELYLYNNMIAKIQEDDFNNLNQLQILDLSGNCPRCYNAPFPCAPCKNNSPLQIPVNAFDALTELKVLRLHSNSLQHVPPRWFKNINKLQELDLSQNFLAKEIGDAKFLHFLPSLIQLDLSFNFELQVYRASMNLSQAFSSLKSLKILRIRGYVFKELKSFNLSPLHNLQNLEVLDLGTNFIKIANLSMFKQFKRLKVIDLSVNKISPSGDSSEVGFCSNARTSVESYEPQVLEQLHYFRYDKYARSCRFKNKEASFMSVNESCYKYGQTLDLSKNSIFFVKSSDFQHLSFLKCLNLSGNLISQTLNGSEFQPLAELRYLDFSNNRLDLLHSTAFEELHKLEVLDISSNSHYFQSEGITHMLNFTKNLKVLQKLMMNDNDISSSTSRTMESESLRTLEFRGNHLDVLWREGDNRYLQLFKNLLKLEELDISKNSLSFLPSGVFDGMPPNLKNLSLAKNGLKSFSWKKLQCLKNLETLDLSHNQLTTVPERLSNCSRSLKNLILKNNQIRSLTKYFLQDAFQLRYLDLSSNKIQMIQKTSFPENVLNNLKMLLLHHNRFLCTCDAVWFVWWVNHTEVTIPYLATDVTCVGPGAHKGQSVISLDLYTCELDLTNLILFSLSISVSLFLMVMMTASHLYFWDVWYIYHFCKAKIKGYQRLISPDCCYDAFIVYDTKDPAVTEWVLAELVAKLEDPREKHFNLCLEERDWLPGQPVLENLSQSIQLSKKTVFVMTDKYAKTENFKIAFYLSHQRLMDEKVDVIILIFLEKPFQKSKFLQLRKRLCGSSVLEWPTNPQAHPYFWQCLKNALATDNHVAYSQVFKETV
EXPERIMENT: TLR7 inhibition reporter assay (HEK-Blue cells, SEAP reporter, gardiquimod stimulation)
APPLIED CONDITIONS: HEK-Blue cells overexpressing human TLR7, SEAP reporter, gardiquimod 7.5 μM
The entries below come with measured IC50 values attached.
Show the value, then the unit it is measured in.

These recorded examples may help you get a feel for the data.
COMPOUND	SYSTEM TESTED	IC50
Cc1cc(-c2[nH]c3ccc(C4CCC(NC5COC5)CC4)cc3c2C(C)C)cc(C)n1 (centres unmarked) [Example 60]	human TLR7 (Homo sapiens, UniProt Q9NYK1)	0.26 nM
Cc1c(-c2[nH]c3ccc(C4CC5CN(C(C)C)CC5C4)cc3c2C(C)C)cn2cnnc2c1C (centres unmarked) [Example 560]	human TLR7 (Homo sapiens, UniProt Q9NYK1)	1 nM
Cc1cc(-c2[nH]c3ccc(C4CCC(NC5(C)COC5)CC4)cc3c2C(C)C)cn2ncnc12 (single isomer, unassigned) [Example 47]	human TLR7 (Homo sapiens, UniProt Q9NYK1)	2 nM
COc1cc(-c2[nH]c3ccc(CC4CN(CC#N)C4)cc3c2C(C)C)cn2ncnc12 [Example 432]	human TLR7 (Homo sapiens, UniProt Q9NYK1)	8 nM
COc1ccc(-c2[nH]c3ccc(C4CCCN(CC(=O)N(C)C)C4)cc3c2C(C)C)cc1OC (centres unmarked) [Example 227]	human TLR7 (Homo sapiens, UniProt Q9NYK1)	156 nM

## Task Entry COc1cc(-c2[nH]c3ccc(C4CCCNC4)cc3c2C(C)C)cn2ncnc12 (centres unmarked) [Example 181] : reported IC50 = ?
## Result 0.4 nM

## Task What would you report for Cc1c(-c2[nH]c3ccc(CC4CN(CC(=O)N(C)C)C4)cc3c2C(C)C)cn2ncnc2c1C [Example 400] ?
## Result 18 nM

## Task Try this compound too: COc1cc(-c2[nH]c3ccc(C4CCC(NC(C)=O)CC4)cc3c2C(C)C)cn2ncnc12 (single isomer, unassigned) [Example 116]
## Result 9 nM

====

SYSTEM TESTED: human TLR8 (Homo sapiens)
EXPERIMENT: TLR8 inhibition reporter assay (HEK-Blue cells, SEAP reporter, R848 stimulation)
APPLIED CONDITIONS: HEK-Blue cells overexpressing human TLR8, SEAP reporter, R848 15.9 μM
Description: TLR7/8/9 Inhibition Reporter Assays HEK-Blue™-cells (Invivogen) overexpressing human TLR7, TLR8 or TLR9 receptors were used for screening inhibitors of these receptors using an inducible SEAP (secreted embryonic alkaline phosphatase) reporter gene under the control of the IFN-β minimal promoter fused to five NF-κB and AP-1-binding sites. […]
In this section we review reported pIC50 values for a set of molecules.
Conceptually, pIC50 converts a concentration in mol/L into minus its log10.

MOLECULE	pIC50
Cc1c(-c2[nH]c3ccc(C4CC5CN(C(=O)CN(C)C)CC5C4)cc3c2C(C)C)cn2cnnc2c1C (stereo not drawn)	7.43

## Task Entry Cc1cc(-c2[nH]c3ccc(C4CCC(C(=O)N5CCCCC5)CC4)cc3c2C(C)C)cn2ncnc12 (single isomer, unassigned) [Example 160] has what pIC50?
## Result 6.81

## Task Similarly, COc1cc(-c2[nH]c3ccc(C4CCC(NCC(F)(F)F)CC4)cc3c2C(C)C)cn2ncnc12 (single isomer, unassigned) [Example 110] ?
## Result 6.40

## Task Record: CNC1CCC(c2ccc3[nH]c(-c4cn5ncnc5c(C)c4C)c(C(C)C)c3c2)CC1 (stereo not drawn) [Example 91]
## Result 8.57

## Task Now this one: Cc1c(-c2[nH]c3ccc(C4CC(NCC#N)C4)cc3c2C(C)C)cn2ncnc2c1C (stereo not drawn) [Example 577]
## Result 8.35

====

Below, each entry is listed with its recorded IC50.
SYSTEM TESTED: human TLR7 (Homo sapiens, UniProt Q9NYK1)
EXPERIMENT: TLR7 inhibition reporter assay (HEK-Blue cells, SEAP reporter, gardiquimod stimulation)
APPLIED CONDITIONS: HEK-Blue cells overexpressing human TLR7, SEAP reporter, gardiquimod 7.5 μM
Report the figure in nM without appending any unit label.

In the examples that follow, each entry is paired with its recorded IC50.
MOLECULE	IC50, nM
Cc1c(-c2[nH]c3ccc(C4CNCCO4)cc3c2C(C)C)cn2ncnc2c1C (stereo not drawn) [Example 286]	1
CCN(C)C1CCC(c2ccc3[nH]c(-c4cn5ncnc5c(C)c4C)c(C(C)C)c3c2)CC1 (stereo not drawn) [Example 88]	2
Cc1c(-c2[nH]c3ccc(C4CCC(NC5COC5)CC4)cc3c2C(C)C)cn(C)c(=O)c1C (stereo not drawn) [Example 477]	2
Cc1cc(-c2[nH]c3ccc(CC4CCCN4C4CCOCC4)cc3c2C(C)C)cn2ncnc12 (stereo not drawn)	0.72
Cc1c(-c2[nH]c3ccc(C4CCC(NCC(=O)N(C)C)CC4)cc3c2C(C)C)cn(C)c(=O)c1C (stereo not drawn) [Example 473]	34

## Task Quick one: IC50 for COc1ccc(-c2[nH]c3ccc(C4CCC(O)CC4)cc3c2C(C)C)cc1OC (stereo not drawn) [Example 452] ?
## Result 242

## Task And the next one, Cc1cc(-c2[nH]c3ccc(C4CCC(O)CC4)cc3c2C(C)C)ccn1 (stereo not drawn) [Example 174] ?
## Result 164

## Task Now try Cc1c(-c2[nH]c3ccc(C4CN(CC(=O)N(C)C)C(C)(C)CO4)cc3c2C(C)C)cn2ncnc2c1C (stereo not drawn) [Example 386] .
## Result 34

## Task Next record, please: `Cc1c(-c2[nH]c3ccc(C4CN(C(=O)CN(C)C)C4)cc3c2C(C)C)cn(C)c(=O)c1C`
## Result 41

## Task Would you mind doing COc1cc(-c2[nH]c3ccc(C4CCCN(C(=O)C5CCN(C)CC5)C4)cc3c2C(C)C)cn2ncnc12 (stereo not drawn) as well?
## Result 6
